B1: LINE1-mini (parent)
chain: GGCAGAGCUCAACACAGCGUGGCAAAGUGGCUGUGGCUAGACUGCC

variants of: B1; assay: self-cleavage, relative activity (ratio to wild type); higher = more cleavage; in vitro, sequencing; the parent is a self-cleaving ribozyme
Value Kind: self-cleavage
When you answer, write just the number.

>  <Variant Name>
G2C A4U

>  <self-cleavage>
0.08

$$$$
>  <Variant Name>
A24U

>  <self-cleavage>
1.42

$$$$

Exam item: Read off the recorded self-cleavage for G36U C46U
Marked response: 0.1

Exam item: Look up and state reported self-cleavage for G1C G5U
Marked response: 0.02

Exam item: Please supply the value of reported self-cleavage for the item C23A C42G
Marked response: 0.06

Exam item: For U9C U32A , write its self-cleavage.
Marked response: 0.02

Exam item: Give reported self-cleavage value for A12U G22A
Marked response: 0.4

Sourced from the RNAGym collection of RNA variant scans (doi:10.7554/elife.90254)
